# assayTarget: T1, macaque CD37 (macaque, UniProt P11049 1-277 (human entry))
# T1 construct: Expressed on 300-19 cells transfected with pSRa-CD37mac (300-19/CD37mac cells); also called macaca CD37; macaque derived CD37 antigen
# T1 chain: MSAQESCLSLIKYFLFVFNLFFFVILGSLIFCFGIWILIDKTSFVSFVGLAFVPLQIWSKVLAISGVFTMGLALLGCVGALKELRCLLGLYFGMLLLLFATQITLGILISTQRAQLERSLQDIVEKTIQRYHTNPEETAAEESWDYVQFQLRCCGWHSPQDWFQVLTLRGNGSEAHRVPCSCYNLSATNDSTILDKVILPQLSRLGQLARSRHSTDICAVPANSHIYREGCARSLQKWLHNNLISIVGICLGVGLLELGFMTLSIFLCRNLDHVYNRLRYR
# assayName: flow cytometry titration on 300-19/CD37mac cells; apparent Kd
# Protocol: Binding specificity was tested by flow cytometry using purified antibodies. […] Samples were acquired using a FACSCalibur flow cytometer with the HTS multiwell sampler or a FACS array flow cytometer and analyzed using CellQuest Pro (all from BD Biosciences, San Diego, US). Flow cytometry binding assays were carried out using secondary FITC-conjugated goat-anti-human antibodies, analyzed as described in Example 2 and dose-response curves were generated by non-linear regression for each antibody. […]
assayEndpoint: Kd

1) huCD37-57 (antibody, human IgG1, kappa, V domains shown, Humanized antibody) VH: QVQLQESGPGLLKPSQSLSLTCTVSGYSITSGFAWHWIRQFPGKGLEWMGYILYSGSTVYSPSLKSRISITRDTSKNQFFLQLNSVTAADTATYYCARGYYGYGAWFAYWGQGTLVTVSA VL: EIVLTQSPATMSASPGERVTMTCSATSSVTYMHWYQQKPGQSPRRWIYDTSNLASGVPARFSGSGSGTSYSLTISSMEAEDAATYYCQQWSDNPPTFGQGTKLEIKR
2 nM
2) huCD37-51 (antibody, human IgG1, kappa, V domains shown, Humanized antibody) VH: EVQLVESGPEVLKPGESLSLTCTVSGYSISSGFAWHWIRQFPGKGLEWMGYIHYSGSTNYSPSLQGRISITRDSSINQFFLQLNSVTASDTATYYCARGYYGFGAWFVYWGQGTLVTVSA VL: EIVLTQSPATMSASPGERVTMTCSATSSVTYMHWYQQKPGQSPKRWIYDTSKLASGVPARFSGSGSGTSYSLTISSMEAEDAATYYCQQWSSNPPTFGQGTKLEIKR
14 nM
3) huCD37-50 (antibody, human IgG1, kappa, V domains shown, Resurfaced (humanized) antibody) VH: QVQLQESGPGLLKPSQSLSLTCTVSGYSITSGFAWHWIRQHPGNKLEWMGYILYSGSTVYSPSLKSRISITRDTSKNHFFLQLNSVTAADTATYYCARGYYGYGAWFAYWGQGTLVTVSA VL: EIVLTQSPATMSASPGERVTMTCSATSSVTYMHWYQQKPGQSPKRWIYDTSNLPYGVPARFSGSGSGTSYSLTISSMEAEDAATYYCQQWSDNPPTFGQGTKLEIKR
1.8 nM
4) huCD37-38 (antibody, human IgG1, kappa, V domains shown, Humanized antibody) VH: QVQLQESGPGLVKPSQSLSLTCTVSGYSITSGFGWHWIRQFPGKGLEWMAYILYSGGTDYNPSLKSRISITRDTSKNQFFLRLSSVTAADTATYYCARGYYGYGAWFVYWGQGTLVTVSS VL: DIVLTQSPASMSASPGERVTMTCSASSSVTYMHWYQQKPGTSPKRWIYDTSKLASGVPARFSGSGSGTSYSLTISSMEAEDAATYYCQQWISNPPTFGGGTKLEIKR
1.1 nM
5) huCD37-56 (antibody, human IgG1, kappa, V domains shown, Humanized antibody) VH: QVQLQESGPGLVKPSQSLSLTCTVSGYSITSGFAWHWIRQFPGKGLEWMGYIHYSGGTNYNPSLKSRVSITRDTSKNQFFLQLNSVTAADTATYYCARGYYGFGAWFAYWGQGTLVPVSA VL: DIVLTQSPAFMSASPGEKVTMTCSASSSVTYMHWYQQKPDQSPKRWIYDTSNLASGVPSRFSGGGSGTDYSLTISSMEAEDAATYYCQQWISDPPTFGQGTKLEIKR
5 nM
